Below, each of the compounds is paired with its reported pIC50 value.
- test system: Voltage-gated inwardly rectifying potassium channel KCNH2 (Homo sapiens, UniProt Q12809)
- Sequence (Q12809 whole entry): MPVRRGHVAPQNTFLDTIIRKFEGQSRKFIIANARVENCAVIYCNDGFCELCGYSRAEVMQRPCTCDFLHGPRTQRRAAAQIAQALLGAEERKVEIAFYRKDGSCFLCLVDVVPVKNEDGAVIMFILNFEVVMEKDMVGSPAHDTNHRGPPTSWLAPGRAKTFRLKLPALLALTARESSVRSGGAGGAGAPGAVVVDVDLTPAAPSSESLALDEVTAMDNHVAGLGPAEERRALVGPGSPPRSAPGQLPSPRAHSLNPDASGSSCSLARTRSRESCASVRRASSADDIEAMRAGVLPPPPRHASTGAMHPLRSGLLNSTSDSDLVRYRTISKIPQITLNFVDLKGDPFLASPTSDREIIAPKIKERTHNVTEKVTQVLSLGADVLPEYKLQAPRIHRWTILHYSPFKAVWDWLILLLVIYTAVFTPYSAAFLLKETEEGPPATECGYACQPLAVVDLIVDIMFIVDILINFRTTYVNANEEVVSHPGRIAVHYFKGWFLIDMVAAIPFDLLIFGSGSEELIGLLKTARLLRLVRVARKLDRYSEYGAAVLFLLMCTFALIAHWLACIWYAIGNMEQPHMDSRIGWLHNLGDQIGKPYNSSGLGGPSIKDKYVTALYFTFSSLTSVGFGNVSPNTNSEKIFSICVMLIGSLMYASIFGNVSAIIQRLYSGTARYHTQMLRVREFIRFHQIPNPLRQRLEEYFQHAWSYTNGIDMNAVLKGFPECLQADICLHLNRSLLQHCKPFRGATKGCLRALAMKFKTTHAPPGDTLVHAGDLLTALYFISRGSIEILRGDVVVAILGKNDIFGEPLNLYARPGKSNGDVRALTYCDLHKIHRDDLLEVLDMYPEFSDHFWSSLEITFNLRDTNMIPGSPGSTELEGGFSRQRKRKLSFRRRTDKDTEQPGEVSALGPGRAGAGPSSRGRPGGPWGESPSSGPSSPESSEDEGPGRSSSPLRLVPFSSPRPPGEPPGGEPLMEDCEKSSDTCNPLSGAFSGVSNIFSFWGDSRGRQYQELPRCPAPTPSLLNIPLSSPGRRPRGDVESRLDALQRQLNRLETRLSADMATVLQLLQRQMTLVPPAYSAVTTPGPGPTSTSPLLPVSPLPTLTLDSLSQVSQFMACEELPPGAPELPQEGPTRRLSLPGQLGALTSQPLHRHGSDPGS
- experiment summary: Inhibition of hERG expressed in CHO cells assessed as inhibition of channel current measured at holding potential of -80 mV by whole cell patch clamp analysis
pIC50: −log10 of the molar value.

Consider the reported pIC50 for these compounds:
>>> df
                                   compound                               test_system  observed_result
0  CC(C)OC(=O)[C@H](C)NP(=O)(CO[C@H](C)Cn1cnc2c(N)ncnc21)OCc1ccccc1 (single isomer, unassigned; 3a)  Voltage-gated inwardly rectifying potassium channel KCNH2 (Homo sapiens, UniProt Q12809)           < 5.00
1  Cc1ccccc1COP(=O)(CO[C@H](C)Cn1cnc2c(N)ncnc21)N[C@@H](C)C(=O)OC(C)C (single isomer, unassigned; 5b)  Voltage-gated inwardly rectifying potassium channel KCNH2 (Homo sapiens, UniProt Q12809)           < 5.00
2  CC(C)OC(=O)[C@H](C)N[P@](=O)(CO[C@H](C)Cn1cnc2c(N)ncnc21)Oc1ccccc1 [TENOFOVIR ALAFENAMIDE]  Voltage-gated inwardly rectifying potassium channel KCNH2 (Homo sapiens, UniProt Q12809)           < 5.00

Please look at the following compound next.
Return reported pIC50; argument: CC(C)OC(=O)[C@H](C)NP(=O)(CO[C@H](C)Cn1cnc2c(N)ncnc21)OCc1ccccc1 (single isomer, unassigned; 3b)
< 4.52

---

- experiment summary: Ratio of drug level in ICR mouse liver to plasma at 50 mg/kg, ig measured after 3 hrs by LC-MS/MS analysis
- Type: ADME, organism-based
- run conditions: liver and plasma, po
quantity name: Kp at 3 h
Give the figure by itself; no unit, no explanation.

Return reported Kp at 3 h; argument: CC(C)OC(=O)[C@H](C)NP(=O)(CO[C@H](C)Cn1cnc2c(N)ncnc21)OCc1ccccc1 (stereo partly specified)
3.61
